Reference source for all entries: ChEMBL document CHEMBL2384924

molecular target: G-protein coupled receptor 55 (Homo sapiens, UniProt Q9Y2T6); test: Antagonist activity at human GPR55 transfected in CHO cells assessed as inhibition of LPI-induced beta-arrestin recruitment incubated 60 mins prior to LPI addition by beta-arrestin translocation assay
Sequence (Q9Y2T6 whole entry): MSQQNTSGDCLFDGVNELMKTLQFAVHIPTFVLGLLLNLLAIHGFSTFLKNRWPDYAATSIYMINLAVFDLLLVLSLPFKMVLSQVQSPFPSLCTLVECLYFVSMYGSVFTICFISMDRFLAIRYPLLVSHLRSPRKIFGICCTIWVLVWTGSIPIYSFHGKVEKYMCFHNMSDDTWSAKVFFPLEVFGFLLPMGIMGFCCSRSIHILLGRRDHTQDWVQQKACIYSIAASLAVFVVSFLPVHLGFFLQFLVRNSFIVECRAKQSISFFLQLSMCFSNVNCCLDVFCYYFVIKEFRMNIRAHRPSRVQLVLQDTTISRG
pIC50: −log10 of the molar value.
Assign pIC50 to each entry below.

Just so you know, measured pIC50 for `Cc1cc2cc(Cl)cc(Br)c2oc1=O` came out at < 5.00

Look up pIC50 for the entries below, preserving their order.
1. CCCCCc1cc(OC)c2cc(Cc3cccc(C)c3)c(=O)oc2c1
2. COc1cccc2oc(=O)c(Cc3ccccc3)cc12

Output:
1: < 5.00; 2: < 5.00
